- TEST: viability of HCT116 without oncogenic beta-catenin – human colon tumor cells, pilot screen (AID 823);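 further: 0% = wells killed by 20 µM Hyamine and 100% = untreated DMSO cell wells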
- CONDITION_DESCRIPTION: HCT116 beta-catenin knockout viability, CellTiter-Glo, 60 h; at 10 µM; active compounds read low
Inconclusive results are not listed. Activity calls are given as the source filed them.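 How the source made its calls: active means cell viability at or below a set limit in both duplicate runs, the limit being the all-compound median minus 4 SD (cut at about 23% in these data, passing the limit was not always enough); inconclusive means no clear call, values can overlap the other calls; inactive means the rest.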
Kindly supply the reported viability values for the records listed here.

Reported viability for COc1ccc(N2C(=O)CC(N3CC=C(c4ccccc4)CC3)C2=O)cc1 (centres undefined) was 101% (inactive)

Reported viability for CCCOc1ccccc1C1SCC(=O)Nc2c1c(=O)[nH]n2C(C)CCC (centres undefined) was 94% (inactive)

Reported viability for CCOC(=O)c1c(N)n(Cc2ccco2)c2nc3ccccc3nc12 was 83.3% (inactive)

Reported viability for O=C(c1ccc2c(c1)OCO2)N1CCC2(CC1)OCCO2 was 102% (inactive)

Reported viability for Cc1ccc2c(c1)C1CN(C)CCC1N2C(=O)Cn1nnc(-c2ccccc2F)n1 (centres undefined) was 85.2% (inactive)

Reported viability for O/N=C/c1c[nH]c2ccccc12 was 99.9% (inactive)

Reported viability for O/N=C1\CCC2CN(C3CCCCC3)CC2C1 (centres undefined) was 109% (inactive)

Reported viability for CC(=O)c1cccc(NC2=NCC(C)S2)c1 (centres undefined) was 106% (inactive)

Reported viability for FC(F)(F)/C(=N\P(=S)(N1CCOCC1)N1CCOCC1)N1CCOCC1 was 94.9% (inactive)

Reported viability for COP(=S)(OC)SCN1C(=O)c2ccccc2C1=O was 94.2% (inactive)

Reported viability for CN(C(=O)Oc1cccc2cccnc12)c1ccccc1 was 91% (inactive)

Reported viability for O=C1c2ccccc2C(=O)N1Cc1nc2ccccc2c(=O)n1-c1ccc(Br)cn1 was 98.4% (inactive)

Reported viability for Cc1nc2ccc(Cl)cn2c1P(=S)(N1CCOCC1)N1CCOCC1 was 99.8% (inactive)

Reported viability for CC1(C)Cc2c(sc3c2C(=O)NC(c2cccnc2)N3)CO1 (centres undefined) was 107% (inactive)

Reported viability for C=Cn1ccnc1P(=S)(c1ccn(C)c1)c1nccn1C=C was 100% (inactive)

Reported viability for CN(C)C(=O)Oc1ccc(-c2nnco2)cc1 was 104% (inactive)

Reported viability for O=C(NC1(C(F)(F)F)Oc2ccccc2O1)N1CCC2(CC1)OCCO2 was 51.5% (inactive)

Reported viability for Nc1ccc(S(=O)(=O)N2CC3CC(C2)c2cccc(=O)n2C3)cc1 (centres undefined) was 101% (inactive)

Reported viability for c1ccc2c(CN3CCCCCCC3)c[nH]c2c1 was 62.3% (inactive)

Reported viability for C[C@H]1CCC[C@@H](O)CCC/C=C/c2cc(O)cc(O)c2C(=O)O1 was 46.9% (inactive)

Reported viability for O=C(O)c1cc2ccccc2oc1=O was 103% (inactive)

Reported viability for Cc1cccc(-n2c(-c3ccco3)nc3ccccc3c2=O)n1 was 108% (inactive)

Reported viability for Cc1cc(OCC(=O)NC2CCS(=O)(=O)C2)c2c3c(c(=O)oc2c1)CCC3 (centres undefined) was 87.2% (inactive)

Reported viability for O=C(Cc1ccccc1)Oc1cccc(N2C(=O)CCC2=O)c1 was 101% (inactive)

====

- TESTED_TARGET: Pantothenate synthetase (Mycobacterium tuberculosis (strain ATCC 25618 / H37Rv)) (UniProt P9WIL5)
- Sequence (P9WIL5 whole entry, looked up): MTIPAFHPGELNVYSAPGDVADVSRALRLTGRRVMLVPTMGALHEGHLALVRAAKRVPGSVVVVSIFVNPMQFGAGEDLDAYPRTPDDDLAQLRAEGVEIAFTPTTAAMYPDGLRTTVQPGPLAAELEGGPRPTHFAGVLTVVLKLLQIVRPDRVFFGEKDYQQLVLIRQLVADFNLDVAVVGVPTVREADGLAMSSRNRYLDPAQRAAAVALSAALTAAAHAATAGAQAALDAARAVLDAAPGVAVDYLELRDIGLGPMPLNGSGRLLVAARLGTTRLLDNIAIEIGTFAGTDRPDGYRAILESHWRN
- TEST: Coupled enzyme confirmation of inhibitors against recombinant Mtb PanC (AID 375);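 further: 0% = full reaction with vehicle and 100% = no enzyme background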
- CONDITION_DESCRIPTION: coupled enzyme assay; at 10 µM, active compounds read high
READOUT: inhibition (%)
Value expressed in %; do not type the unit.

Reported inhibition for Cc1cccc(-n2ncc3c(N)ncnc32)c1 was 3

Reported inhibition for CC(C)CCNC(=O)CCNS(=O)(=O)c1ccc(Cl)cc1 was 0

Reported inhibition for CC(CCc1ccccc1)NC(=O)c1ccc(Br)o1 (stereo unspecified) was 0

Reported inhibition for N#Cc1c(-c2ccc3c(c2)OCO3)csc1N was 9

Reported inhibition for COc1cccc(-c2csc(N3CCN(CC(=O)Nc4ccc5c(c4)OCO5)CC3)n2)c1 was 0

Reported inhibition for COc1ccc(-c2nc(C)c(C(C)=O)n2O)cc1OC was 0

====

- TESTED_TARGET: Pantothenate synthetase (Mycobacterium tuberculosis (strain ATCC 25618 / H37Rv)) (UniProt P9WIL5)
- TEST: Coupled enzyme confirmation of inhibitors against recombinant Mtb PanC (AID 375);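 further: 0% = full reaction with vehicle and 100% = no enzyme background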
- CONDITION_DESCRIPTION: coupled enzyme assay; at 10 µM, active compounds read high
Kindly supply the reported inhibition values for the records listed here.
Value expressed in %; do not type the unit.

Reported inhibition for CC(=O)c1c(C)[nH]c(C(=O)Nc2c(C)n(C)n(-c3ccccc3)c2=O)c1C was 7

Reported inhibition for O=C(c1ccc(-c2ccccc2)cc1)N1CCN(c2ncccn2)CC1 was 8

Reported inhibition for CCC(Oc1ccc2ccccc2c1)C(=O)O (centres undefined) was 0

Reported inhibition for Cc1ccc(C)c(NS(=O)(=O)c2ccc(NC(=O)c3ccco3)cc2)c1 was 0

Reported inhibition for CC(=O)Nc1ccc(Cl)c(C(N)=O)c1 was 2

Reported inhibition for CNC(=O)c1ccsc1NC(=O)CN1C(=O)CCC1=O was 0

Reported inhibition for CCCCOc1cc(C(=O)NCCN(CC)CC)c2ccccc2n1 was 0

Reported inhibition for CCN(C(=O)c1cc(Cl)ccc1OC)C1CCCCC1 was 0

Reported inhibition for Cc1ccc(CCC(=O)Nc2ccc(S(N)(=O)=O)cc2)o1 was 1

Reported inhibition for Cc1ccc(NC2=NCC(=O)N2c2ccc3c(c2)OCCO3)c(C)c1 was 7

Reported inhibition for CC1CCN(c2oc(-c3ccccc3F)nc2C#N)CC1 was 4

Reported inhibition for Cc1occc1C(=O)Nc1cccc2ccccc12 was 0

Reported inhibition for Cc1ccccc1C(=O)N1CCC(C(=O)Nc2ccc(S(=O)(=O)N3CCCC3)cc2)CC1 was 3

Reported inhibition for COc1ccc(CCNc2oc(-c3ccco3)nc2C#N)cc1 was 2

Reported inhibition for Cc1cc(C)cc(NC(=O)C2CCCN(S(=O)(=O)c3cnc[nH]3)C2)c1 (centres undefined) was 0

Reported inhibition for C=C(C)Cn1c(CCCNC(=O)C(C)(C)C)nc2ccccc21 was 0

Reported inhibition for CC(C)C(CO)NC(=O)CC(=O)NC(CO)C(C)C (centres undefined) was 2

Reported inhibition for CCCOC(=O)c1[nH]c2c(c1C)C(=O)CC(c1cc(OC)c(OC)c(OC)c1)C2 (centres undefined) was 0

Reported inhibition for COc1ccc(-n2c(Cc3cccn3C)nnc2SCC(=O)Nc2cccc(C)c2C)cc1 was 0

Reported inhibition for O=C(CN(c1ccccc1)S(=O)(=O)c1ccccc1)N1CCN(Cc2ccc3c(c2)OCO3)CC1 was 0

Reported inhibition for O=C1C(Cl)=C(NCC2CCCO2)C(=O)N1CCc1ccccc1 (centres undefined) was 0

Reported inhibition for Cc1nc2ccccc2c2oc(C(=O)NCc3ccccn3)cc12 was 2

Reported inhibition for CCSC(SCC)[C@H](O)[C@@H](O)[C@H](O)[C@H](O)CO was 2

Reported inhibition for O=C(CNc1ccc(Oc2ccccc2)cc1)N1CCOCC1 was 0

====

Kindly supply the reported inhibition values for the records listed here.
- TESTED_TARGET: Pantothenate synthetase (Mycobacterium tuberculosis (strain ATCC 25618 / H37Rv)) (UniProt P9WIL5)
- TEST: Coupled enzyme confirmation of inhibitors against recombinant Mtb PanC (AID 375);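 further: 0% = full reaction with vehicle and 100% = no enzyme background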
- CONDITION_DESCRIPTION: coupled enzyme assay; at 10 µM, active compounds read high
Value expressed in %; do not type the unit.

Reported inhibition for CCN(CC)CCNC(=O)CCn1c(=S)[nH]c2cc3c(cc2c1=O)OCO3 was 0

Reported inhibition for COc1ccc(S(=O)(=O)Nc2ccccc2OC)cc1C was 2

Reported inhibition for COc1cc2c(cc1OC)C(c1cccnc1)CC(=O)N2 (stereo not drawn) was 5

Reported inhibition for O=C(c1cc2n(n1)C(C(F)(F)F)CC(c1ccc(Cl)cc1)N2)N1CCCC1 (stereo not drawn) was 5

Reported inhibition for CCOC(=O)C1CCCN(C(=O)c2cn(C)c(=O)c3cc(OC)c(OC)cc23)C1 (stereo not drawn) was 0

Reported inhibition for NC(=O)c1c(NC(=O)CN2CCCC2)sc2c1CCCC2 was 4

Reported inhibition for c1ccc2c(Cn3ccnc3)c[nH]c2c1 was 0

Reported inhibition for CCN(CC)c1ccc2cc(NC(=O)CCC(=O)O)c(=O)oc2c1 was 0

Reported inhibition for COc1ccc(C2C(C#N)=C(N)OC3=C2C(=O)CC(C)C3)c(OC)c1OC (stereo not drawn) was 0

Reported inhibition for CCn1cc(C(=O)NCc2ccco2)c(=O)c2cc(F)c(N3CCN(C(=O)c4ccco4)CC3)cc21 was 0

Reported inhibition for COc1cc(NC(=O)C2C3C=CC(C3)C2C(=O)O)c(OC)cc1Cl (stereo not drawn) was 0

Reported inhibition for CN(C)c1ccc(NC(=O)CSCc2nc3c(nnn3Cc3ccc(F)cc3)c(=O)[nH]2)cc1 was 3

Reported inhibition for C=CCn1c(SCC(=O)Nc2ccccc2OC)nnc1-c1ccccn1 was 3

Reported inhibition for CCN(CC)CCOC(=O)c1cccc(OC)c1 was 0

Reported inhibition for COCCN(CC(=O)NCc1ccccc1)C(=O)CCC(=O)Nc1ccccn1 was 0

Reported inhibition for Cn1c(-c2ccccc2)cnc1SCc1nc2ccccc2c(=O)[nH]1 was 7

Reported inhibition for CC(=O)Nc1ccc(S(=O)(=O)CCC#N)cc1 was 5

Reported inhibition for O=C(O)CCCNS(=O)(=O)c1ccc(NCc2ccccc2)c(C(=O)O)c1 was 0

Reported inhibition for CCOc1ccc(N(C)S(=O)(=O)c2ccc3[nH]cc(C(=O)NCC4CCCO4)c(=O)c3c2)cc1 (stereo not drawn) was 0

Reported inhibition for Cc1nn(-c2ccc(F)cc2)c2c1cc(C#N)c1nc3ccccc3n12 was 6

Reported inhibition for CCOC(=O)c1sc(C)c2c1NC(C)(c1cccs1)NC2=O (stereo not drawn) was 4

Reported inhibition for CN(C)S(=O)(=O)c1ccc(C(=O)NCc2cccs2)cc1 was 4

Reported inhibition for c1ccc(-c2nn3nnnc3c3ccccc23)cc1 was 4
